Catalogue of sequences with associated self-aminoacylation
Test system: biotinyl-Trp-oxazolone
Test: self-aminoacylation, catalytic enhancement (BWO) (fold over background); higher = more active; k-Seq, kA / k0A0; sequences stand for … in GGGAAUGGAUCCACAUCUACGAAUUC…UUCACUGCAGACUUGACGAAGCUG
Variants at the floor of the assay were thinned out.
Answer using only a numeral; do not append any unit.

Guide cases for self-aminoacylation, answers given:
For this sequence ( CUACUUCAAACAGUCGUUCUG [Fam1A.1 aminoacylation ribozyme variant] ), measured self-aminoacylation is 0.472

Record AGUGCCCUGGUCAUCGAGUGA [Fam2.1 aminoacylation ribozyme variant] . Reported self-aminoacylation: 13.6

GET /value?item= AAGUUUGAUGAUAGUCGCAAG [Fam3.1 aminoacylation ribozyme variant] &field=self-aminoacylation returns 1.4

// recorded self-aminoacylation for AUUCACCGAGGCCAUCGGGUG [Fam2.2 aminoacylation ribozyme variant] : 4.78

Just so you know, measured self-aminoacylation for AUUAACCUAGUCAUCGAGUGA [Fam2.1 aminoacylation ribozyme variant] came out at 7.12

Continuing:
Value of self-aminoacylation reported for the sequence AUAACCCUGGUAAUCGAGUGA [Fam2.1 aminoacylation ribozyme variant] is 9.38

Record AUUAACCUAGGUCAUCGGGGG [Fam2.2 aminoacylation ribozyme variant] . Reported self-aminoacylation: 2.88

Form field self-aminoacylation, entry AUUACCCUAGUCAUCAAGUGA [Fam2.1 aminoacylation ribozyme variant] : 4.95

response.value for AAUACCCUGAUCAUCGAGUGA [Fam2.1 aminoacylation ribozyme variant] (field: self-aminoacylation) = 7.59

====

self-aminoacylation listing for selected sequences.
System: biotinyl-Ile-oxazolone
Experiment: self-aminoacylation, catalytic enhancement (BIO) (fold over background); higher = more active; k-Seq, kA / k0A0; sequences stand for … in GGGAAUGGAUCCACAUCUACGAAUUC…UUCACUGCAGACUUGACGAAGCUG
Fewer inactive variants are shown than the library holds.
Number, no unit, nothing else.

So, GCACACUUCAAGGAAUCGGUC [Fam1B.1 aminoacylation ribozyme variant] ? Its self-aminoacylation was 1.67

***
GET /value?item= AUGUUUGCUAAUAGUGGCAAG [Fam3.1 aminoacylation ribozyme variant] &field=self-aminoacylation returns 0.646

response.value for CUACUCCAAACAAUCUGUCUG [Fam1A.1 aminoacylation ribozyme variant] (field: self-aminoacylation) = 0.799

Measured self-aminoacylation, CCACACAUCAGGCAAUCGGUC [Fam1B.1 aminoacylation ribozyme variant] : 1.25

====

Test system: biotinyl-Leu-oxazolone
Assay: self-aminoacylation, catalytic enhancement (BLO) (fold over background); higher = more active; k-Seq, kA / k0A0; sequences stand for … in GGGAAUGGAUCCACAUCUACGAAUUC…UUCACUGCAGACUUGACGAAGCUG
This sample holds only a part of the variants without activity.
readoutKind: self-aminoacylation
// return just the number, without any unit appended

Reference set (6 entries):
// assay biotinyl-Leu-oxazolone, entry AGUCACCUAGGUUAUCGGGUG [Fam2.2 aminoacylation ribozyme variant] , self-aminoacylation value = 4.68

Item: CUACUUCAAAAAAUCGGCCUG [Fam1A.1 aminoacylation ribozyme variant] | System: biotinyl-Leu-oxazolone | self-aminoacylation: 1.7

Note to self: self-aminoacylation of AUUCACCUUGGUUAUCGGGUG [Fam2.2 aminoacylation ribozyme variant] with biotinyl-Leu-oxazolone was 5.92

Noted self-aminoacylation for AUUCACCUAGGUCAUCAGCUG [Fam2.2 aminoacylation ribozyme variant] , tested on biotinyl-Leu-oxazolone: 0.804

Field self-aminoacylation (biotinyl-Leu-oxazolone), entry AUUCACCUAGGACAUCUGGUG [Fam2.2 aminoacylation ribozyme variant] : 2.13

Param item: AUUCACCUAGCUCAUCCGGUG [Fam2.2 aminoacylation ribozyme variant] ; param system: biotinyl-Leu-oxazolone; output self-aminoacylation: 3.7

Others:
Measured self-aminoacylation for this entry AAGUUUGCUAAUAAUUGCAAG [Fam3.1 aminoacylation ribozyme variant] on biotinyl-Leu-oxazolone: 0.877

The sequence AAUUCUGCUAAUAGUCGCAAG [Fam3.1 aminoacylation ribozyme variant] on biotinyl-Leu-oxazolone: self-aminoacylation was 1.61

Bench note, biotinyl-Leu-oxazolone: entry CUCCUUCAAACCAUCGGUCUG [Fam1A.1 aminoacylation ribozyme variant] , its self-aminoacylation = 0.781
